Molecular target: Dual specificity protein phosphatase 6 (Homo sapiens)
Test: DUSP6 inhibitors restoring Erk phosphorylation by chemical complementation, primary imaging in DUSP6-transfected HeLa (AID 609);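 further: phospho-Erk level distribution per well compared with pooled transfected vehicle control wells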
Conditions: HeLa MKP-3 transfected, phospho-Erk imaging KS statistic; at 10 µM; stronger effect = higher value; cells stimulated with TPA for 15 min
PROPERTY_NAME: inhibition (%)
Give the value in % but do not write % after it.

Below, 3 molecules whose answers are already recorded.
* N#CCSc1nc2c(c(=O)n1Cc1ccco1)C1(CCCC1)Cc1ccccc1-2 | 13.9
* Clc1ccccc1CN(Cc1ccccc1)c1ncnc2nc[nH]c12 | 1.63
* CCN(CC)CCCN1C(=O)C(=O)/C(=C(/O)c2ccc(OC)cc2)C1c1ccco1 (stereo unspecified) | -0.233

Briefly, inhibition measured for `Cc1cc(C)n(-c2c(F)c(F)c(CN3CCCCC3)c(F)c2F)n1` : 17.8

Briefly, inhibition measured for `CCSc1nc2sc3c(c2c2nnc(SCC(=O)NCc4ccco4)n12)CCCC3` : 1.9e-07

Briefly, inhibition measured for `COC(=O)CSc1nc2c(c(=O)n(C)c(=O)n2C)n1CCC(C)C` : 3.42
